For each of the compounds below, state its melting point.

As a guide, the following entries are already answered.
Cc1ccc(S(=O)(=O)OC[C@H]2COc3ccc([N+](=O)[O-])cc3O2)cc1 ... 138 °C
CCOC(=O)c1sc(NC(=O)c2cc(Br)ccc2O)nc1-c1ccccc1 ... 197 to 199 °C
CCOC(=O)c1cc(CCC2CNc3nc(NC(=O)C(C)(C)C)nc(O)c3C2)[nH]n1 (stereo not given) ... 235 to 237 °C
COc1cc(Nc2nc3c(s2)CCCC3c2ccccc2)ccc1C(=O)NN (stereo not given) ... 297 to 299 °C
COCOc1ccc(CCCO)c(Oc2ncc(C(F)(F)F)cc2Cl)c1 ... 92.5 to 93.5 °C
COc1ccc(CS[C@@H]2C[C@@H](COc3ccccc3)N(S(C)(=O)=O)C2)cc1 ... 92 to 94 °C
CNC(=O)ON=C(C)CN(c1c(C)cccc1C)S(C)(=O)=O ... 130 to 134 °C
CCOC(=O)C(CCc1ccc2c(c1)OCO2)(Cc1cc(OC)c(OC)c(OC)c1)C(=O)OCC ... 79.5 to 81 °C

// for each compound in input: emit melting point
1. N#Cc1ccc(Oc2ccccc2)cn1
2. C=CC(=O)Nc1cccc2c1sc1c(Nc3cccc(Br)c3)c(C#N)cnc12
3. COc1ccc(CN2Cc3cc(N(C)C)ccc3N3CC(=O)N=C23)cc1
4. c1nnc2c3c(c(NCCN4CCCC4)nn12)CCCC3
5. CCCc1cc2cc(OC)ccc2[nH]1
6. CCN1C(=O)C(C)(C)C(=O)N(C)c2cc(CN(CCn3cc(C)c4sccc4c3=O)Cc3cnccc3C)ccc21
7. c1ccc(CSc2ncccc2C2=NOCC2)cc1
8. C=CCc1c2c(cc3c(=O)cc(C(=O)O)oc13)CCCC2

1: 84 to 85 °C; 2: 286 to 287 °C; 3: 196 to 200 °C; 4: 160 to 162 °C; 5: 49 to 50 °C; 6: 174 to 175 °C; 7: 97 to 98 °C; 8: 235 to 237 °C

---

measured.metric: melting point

CCOC(=O)CON1C(=O)C(=O)N(c2ccccc2SC)C1=S ... 112 to 114 °C

// for each compound in input: emit melting point
1. CC(C)(C)OC(=O)CNc1nc(NCc2ccc(NC(=O)c3ccc(F)cc3)cc2)c2ccccc2n1
2. COc1ccc(CNc2cnn[nH]2)cc1OC1CCCC1
3. O=CNc1ccc(Br)c(Cl)c1
4. CC1=CC(C)(C)OC(c2nsc3ccc(-n4c(=O)cc(C(F)(F)F)n(C)c4=O)cc23)C1 (stereo not given)
5. Cn1cc(O)c(=O)c2cc(F)c(F)cc21
6. CN(Cc1cc(Cl)c(O)c(Br)c1)C1CCCCC1
7. CCCC1=NN(c2ccc(C(=O)N(CC)CC)cc2)C(=O)C1=CNc1ccccc1CC

96 °C
113 to 114 °C
110 to 113 °C
88 to 92 °C
264 to 265 °C
136 to 138 °C
123 °C

// for each compound in input: emit melting point
1. COC(=O)CCNc1ccc(CNC(=O)C2Cc3ccccc3N2S(=O)(=O)c2ccc(-c3cccc(C(F)(F)F)c3)cc2)cc1 (stereo not given)
2. CC(F)(F)C1(O)c2cc(Cl)ccc2Nc2ncccc21 (stereo not given)

["61 °C", "188 to 190 °C"]

---

measured.metric: melting point

COc1cc(OCC(O)CCl)cc2oc3ccccc3c(=O)c12 (stereo not given) ... 107 °C
Cc1noc(C)c1C(=O)Nc1ccc(-n2nc(C(F)(F)F)cc2C2CC2)cc1 ... 170 to 172 °C
Cn1cc(-c2ccc(=O)n(Cc3cccc(-c4ncc(OCCO)cn4)c3)n2)cn1 ... 182 to 183 °C

// for each compound in input: emit melting point
1. COc1cc2nc(-c3ccc(Cl)cc3)nc(O)c2cc1OC
2. CCOC(=O)C1=C(C(F)(F)F)Nc2n[nH]cc2C1c1ccsc1 (stereo not given)
3. CCCN(Cc1cccc(C(=N)N)c1)C(=O)Nc1ccc(-c2ccccc2S(N)(=O)=O)cc1
4. CN1C(=O)CN2CC(CCl)OC2(c2ccccc2)c2cc(Cl)ccc21 (stereo not given)
5. COC(=O)c1cc(-c2ccc(OC)c(Cl)c2)nn(CC(C)C)c1=O

1. 329 °C
2. 140 to 145 °C
3. 166 to 167 °C
4. 140 to 142 °C
5. 108 to 109 °C

// for each compound in input: emit melting point
1. C=CCNc1nc(N(CC=C)CC=C)nc2ccc([N+](=O)[O-])cc12
2. C/C=C/C(=O)NC(=O)OC

167 to 168 °C
149 to 150 °C

---

measured.metric: melting point

As a guide, the following entries are already answered.
COc1ccc(C2(CCN3CCC(C(=O)c4nc5ccccc5n4Cc4ccc(F)cc4)CC3)CCN(C(=O)c3cc(OC)c(OC)c(OC)c3)C2)cc1OC (stereo not given) ... 80 to 83 °C
CN(Cc1cc2c3c(c1)c(=O)c(C(=O)NCc1ccc(Cl)cc1)cn3CC(=O)N2C)C[C@@H](O)c1ccsc1 ... 137 to 139 °C
Cc1cccc(S(=O)(=O)Cc2c(C(F)(F)F)n[nH]c2O)c1 ... 130 to 133 °C

// for each compound in input: emit melting point
1. COC(C)=CC(=O)Nc1cccc(N)c1
2. CC(C)=CCN1Cc2cc(Cl)c(Cl)c3[nH]c(=S)n(c23)C[C@@H]1C
3. CON=C(C)c1ccc(-c2ccccc2NC(=O)c2c(C)nn(C)c2F)cc1
4. COC(=O)Nc1cn2cc(Sc3ccccn3)ccc2n1
5. CCCc1nnc2c(=O)n(C)c3ccc(C(F)(F)F)cc3n12

1. 132 °C
2. 173 °C
3. 153 °C
4. 230 to 236 °C
5. 257 to 258 °C

// for each compound in input: emit melting point
1. CN(CC(=O)C(Cc1c[nH]c2ccccc12)NC(=O)c1ccccc1)C(=O)N1CCCC1C(=O)O (stereo not given)
2. COCc1noc(-c2ncn3c2CN(C)C(=O)c2cc(F)ccc2-3)n1
3. COC(=O)c1cccc(Oc2cccc(Br)n2)c1
4. CCOC(=O)C1=C(C)N(C(=O)OCC)C(C)=C(C(=O)OCC)C1c1ccccc1C(F)(F)F
5. Cn1ncc(Cl)c(N)c1=O
6. C=C1N(CCCC)C(=O)OC12CCN(CCC=C(c1ccc(F)cc1)c1ccc(F)cc1)CC2
7. O=C(NC1C(=O)N(CC23CC4CC(CC(C4)C2)C3)c2ccc(F)cc2N(c2ccccc2)C1=O)Oc1ccccc1 (stereo not given)
8. COc1ccc(C(=O)c2ccc(SCc3ccccc3)s2)cc1

1. 102 to 128 °C
2. 192 to 194 °C
3. 68 to 69 °C
4. 56 to 58 °C
5. 106 to 107 °C
6. 92 to 93 °C
7. 156 to 159 °C
8. 103 to 105 °C

---

measured.metric: melting point

As a guide, the following entries are already answered.
O=C(c1ccc([N+](=O)[O-])cc1Cl)N1CCCCc2ncccc21 ... 143 to 145 °C
Cn1cc(C=CC(=O)Nc2ccc(O)cc2)c([N+](=O)[O-])n1 ... 290 to 293 °C
Cc1nc(N2CCNCC2)nc(N2CCS(=O)(=O)CC2)c1[N+](=O)[O-] ... 208 to 211 °C
O=C(O)CCc1cccc(CCc2nc(-c3ccccc3)c(-c3ccccc3)o2)c1 ... 119 to 120 °C

Sample CNCc1nnc2n1-c1ccc(Cl)cc1C(c1ccccc1F)=CC2 — what was its melting point? 170 to 171 °C

---

For each of the molecules below, state its melting point.

As a guide, the following entries are already answered.
CCOC(=O)c1cc2c(OCc3ccccc3)cccc2n1C ... 89 to 90.5 °C
CC(=O)N1CCN(c2ccc(-c3cnc4[nH]cc(C(=O)N[C@@H](C(=O)N5CC(C#N)C5)C5CC5)c4n3)cc2)CC1 ... 185 to 188 °C
N#Cc1ccc(CC23CCNN2C(=O)N(c2cc(Cl)nc(Cl)c2)C3=O)cc1 (centres undefined) ... 187 °C
NS(=O)(=O)c1ccc(NCC(=O)Nc2ccccc2)cc1 ... 257 to 258 °C
CCCCc1nn(-c2cc(NC(=O)CC)ccc2Cl)c(C#N)c1Cc1ccc(-c2ccccc2S(=O)(=O)NC(=O)OC(C)(C)C)cc1F ... > 95 °C

// for each molecule in input: emit melting point
1. COCCNC(=O)c1cccc(-c2cccc3oc(Cc4ccc(F)c(F)c4)cc23)c1
2. COCCNS(=O)(=O)c1cc2[nH]c(=O)c(=O)[nH]c2cc1[N+](=O)[O-]
3. Nc1nc(NCCN2CCOCC2)nc(-c2cc(Cl)ccc2Cl)n1
4. CCCCCCn1c(=O)[nH][nH]c1=O

1: 83 to 84 °C; 2: 320 to 321 °C; 3: 159 to 161 °C; 4: 144 to 145 °C

# credit: a melting point compilation (Tetko et al.; mined from patent text by program, amines drawn as free bases though some values may be those of a salt)
